B1: TPR t1 (parent)
chain: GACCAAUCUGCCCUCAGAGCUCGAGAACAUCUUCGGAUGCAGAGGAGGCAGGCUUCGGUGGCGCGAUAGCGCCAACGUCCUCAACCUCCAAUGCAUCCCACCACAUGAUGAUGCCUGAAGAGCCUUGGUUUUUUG

Variants of: B1
Assay: polymerase ribozyme fitness, log enrichment relative to wild type (log ratio); higher = more active; in vitro selection for triplet polymerase activity
Parameter threshold = 0.4. Response is 1 (yes) when polymerase ribozyme fitness (log ratio) meets or exceeds it, else 0 (no).

variantDesignation	classLabel
C53U U55A	0 (no)
G25U U33A A68U A111C G127C	0 (no)
C8U C15A A119G	1 (yes)
U9A A83G	0 (no)
C73G G122U C123G	1 (yes)
